Origin of values: patent US12180192B2

- assay target: human thyroid receptor beta ligand-binding domain (LBD) (Homo sapiens)
- Sequence (P10828 217-461 limits assumed): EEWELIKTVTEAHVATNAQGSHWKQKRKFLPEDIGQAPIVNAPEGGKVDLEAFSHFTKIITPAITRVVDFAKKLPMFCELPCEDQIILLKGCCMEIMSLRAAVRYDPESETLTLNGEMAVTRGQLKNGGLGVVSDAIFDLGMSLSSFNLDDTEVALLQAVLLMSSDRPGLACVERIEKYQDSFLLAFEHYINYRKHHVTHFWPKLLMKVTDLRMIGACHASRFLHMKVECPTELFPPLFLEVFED
- protocol summary: TR-FRET thyroid receptor beta coactivator assay (THR biochemical assay, Assay 1)
- conditions used: THR-beta, TR-FRET coactivator assay; read-out: Activity category Assay 1 (EC50, THR-beta agonist)
property: EC50

Reported EC50 (human thyroid receptor beta ligand-binding domain (LBD) (Homo sapiens)) for entry N#Cc1nn(-c2cc(Cl)c(Oc3ccc4[nH]cc(CC5CC5)c4c3)c(Cl)c2)c(=O)[nH]c1=O is < 50 nM

Reported EC50 (human thyroid receptor beta ligand-binding domain (LBD) (Homo sapiens)) for entry Nc1nn(-c2cc(Cl)c(Oc3cc(C(O)C4CCCC4)c(=O)[nH]n3)c(Cl)c2)c(=O)[nH]c1=O (stereo not drawn) is 50 to 250 nM

Reported EC50 (human thyroid receptor beta ligand-binding domain (LBD) (Homo sapiens)) for entry Nc1nn(-c2cc(Cl)c(Oc3cc(C45CC(C4)C5)c(=O)[nH]n3)c(Cl)c2)c(=O)[nH]c1=O is 50 to 250 nM

Reported EC50 (human thyroid receptor beta ligand-binding domain (LBD) (Homo sapiens)) for entry Cc1ccc(-c2cc(Oc3c(Cl)cc(-n4nc(N)c(=O)[nH]c4=O)cc3Cl)n[nH]c2=O)cc1C is 50 to 250 nM

Reported EC50 (human thyroid receptor beta ligand-binding domain (LBD) (Homo sapiens)) for entry Cc1cc(-c2cc(Oc3c(Cl)cc(-n4nc(N)c(=O)[nH]c4=O)cc3Cl)n[nH]c2=O)ccc1Cl is 50 to 250 nM

Reported EC50 (human thyroid receptor beta ligand-binding domain (LBD) (Homo sapiens)) for entry O=c1cc(-c2ccc3sccc3c2)c(Oc2c(Cl)cc(-n3ncc(=O)[nH]c3=O)cc2Cl)n[nH]1 is 1000 to 25000 nM

Reported EC50 (human thyroid receptor beta ligand-binding domain (LBD) (Homo sapiens)) for entry Nc1nn(-c2cc(Cl)c(Oc3cc(C4CCCCC4)c(=O)[nH]n3)c(Cl)c2)c(=O)[nH]c1=O is < 50 nM

Reported EC50 (human thyroid receptor beta ligand-binding domain (LBD) (Homo sapiens)) for entry Nc1nn(-c2cc(Cl)c(Oc3cc(C4CCc5ccccc54)c(=O)[nH]n3)c(Cl)c2)c(=O)[nH]c1=O (stereo not drawn) is < 50 nM

Reported EC50 (human thyroid receptor beta ligand-binding domain (LBD) (Homo sapiens)) for entry Nc1nn(-c2cc(Cl)c(Oc3cc(Cc4ccc(O)cn4)c(=O)[nH]n3)c(Cl)c2)c(=O)[nH]c1=O is 250 to 1000 nM

Reported EC50 (human thyroid receptor beta ligand-binding domain (LBD) (Homo sapiens)) for entry Cc1cccc(-c2cc(Oc3c(Cl)cc(-n4ncc(=O)[nH]c4=O)cc3Cl)n[nH]c2=O)c1 is 50 to 250 nM

Reported EC50 (human thyroid receptor beta ligand-binding domain (LBD) (Homo sapiens)) for entry Cc1c(-n2nc(N)c(=O)[nH]c2=O)cc(Cl)c(Oc2cc(C(C)C)c(=O)[nH]n2)c1Cl is 1000 to 25000 nM

Reported EC50 (human thyroid receptor beta ligand-binding domain (LBD) (Homo sapiens)) for entry Cc1cncc(-c2cc(=O)[nH]nc2Oc2c(Cl)cc(-n3ncc(=O)[nH]c3=O)cc2Cl)c1 is > 25000 nM

Reported EC50 (human thyroid receptor beta ligand-binding domain (LBD) (Homo sapiens)) for entry CC(C)c1c[nH]c2ccc(Oc3c(Cl)cc(-n4nc(C#N)c(=O)[nH]c4=O)cc3Cl)nc12 is < 50 nM

Reported EC50 (human thyroid receptor beta ligand-binding domain (LBD) (Homo sapiens)) for entry Cc1cc(-c2cc(=O)[nH]nc2Oc2c(Cl)cc(-n3ncc(=O)[nH]c3=O)cc2Cl)ccn1 is > 25000 nM

Reported EC50 (human thyroid receptor beta ligand-binding domain (LBD) (Homo sapiens)) for entry Nc1nn(-c2cc(Cl)c(Oc3n[nH]c(=O)cc3-c3cccc(F)c3)c(Cl)c2)c(=O)[nH]c1=O is > 25000 nM
